# Test system: SF-268
# method.notes: NCI tumour cell line growth inhibition, 48 h
The source made the active and inactive calls. Rule as the data show it: active = GI50 up to about 1.1 µM and inactive = higher.
Return exactly one item of active, inactive

Some solved cases for reference:
compound: CC(=O)Nc1[nH]c(C#N)nc1C#N
category.label: inactive
//
compound: Cc1ccc(C(=O)Nc2ccc(CP(=O)(O)O)cc2CP(=O)(O)O)cc1NC(=O)Nc1cc(C(=O)Nc2ccc(CP(=O)(O)O)cc2CP(=O)(O)O)ccc1C
category.label: inactive
//
compound: Cc1ccc([N+](=O)[O-])cc1NC1=NCCO1
category.label: inactive

Which result was noted for this compound in the test: `NNC(=O)/C(=C/c1cccc([N+](=O)[O-])c1)NC(=O)c1ccccc1`
inactive

Which result was noted for this compound in the test: O=C(O)C1=C(O)C(C(=O)O)C23CCCCCCCCCCC12C(C(=O)O)C(O)=C3C(=O)O (stereo not given)
inactive

Which result was noted for this compound in the test: `CC(C)(C)c1ccc(-c2nnc(SCc3ccc(Cl)cc3)n2-c2cccc(C(F)(F)F)c2)cc1`
inactive

Which result was noted for this compound in the test: COc1cccc2c1C(=O)c1c(O)c3c(c(O)c1C2=O)C[C@@](O)(C(=O)CO)C[C@@H]3OC1CC(N(C)C)C(O)C(C)O1 (stereo not given in full)
active

Which result was noted for this compound in the test: `CN(C)CCC(=O)c1ccccc1`
inactive

Which result was noted for this compound in the test: CC(=O)N(CCc1ccccc1)C(C)(C#N)c1ccccc1 (stereo not given)
inactive

Which result was noted for this compound in the test: `CCOC(=O)/C(C#N)=C(O)/C(=C/c1ccccc1Cl)NC(=O)c1ccccc1`
inactive

Which result was noted for this compound in the test: `CCOc1ccc(Nc2nc3c(s2)C(=O)c2ccccc2C3=O)cc1`
inactive

Which result was noted for this compound in the test: `O=C1C(=O)N(C(=O)c2ccc(Cl)c(Cl)c2)c2ccccc21`
inactive

Which result was noted for this compound in the test: CC(=O)OCC(OC(C)=O)C(OC(C)=O)C(OC(C)=O)C(C=NN(C(C)=O)S(=O)(=O)c1ccc(/C=C2\NC(=O)N(C)C2=O)cc1)OC(C)=O (stereo not given)
inactive

Which result was noted for this compound in the test: COc1cc(C2OC[C@@H]3C(=O)OC[C@H]23)cc(O)c1OC (stereo not given in full)
inactive

Which result was noted for this compound in the test: `O=C(Nc1ccc(Cl)cc1Cl)C1C(=O)OC2(CCCCC2)OC1=O`
inactive

Which result was noted for this compound in the test: C#CCN(N=O)C(=O)NCCCCC(NC(C)=O)C(=O)NCc1ccccc1 (stereo not given)
inactive

Which result was noted for this compound in the test: CC(C)[Si](OCC1CC(C#N)OC(C)(C)O1)(C(C)C)C(C)C (stereo not given)
inactive

Which result was noted for this compound in the test: COC1OC(CBr)C(OC(=O)c2ccccc2)C(OS(=O)(=O)c2ccc(C)cc2)C1Br (stereo not given)
inactive

Which result was noted for this compound in the test: CCOP(=O)(OCC)C(C)(CC)NC (stereo not given)
inactive

Which result was noted for this compound in the test: CC(=O)OCC1OC(n2c3c(cc(C#N)c2=S)CCC3)C(OC(C)=O)C(OC(C)=O)C1OC(C)=O (stereo not given)
inactive

====

# Tested on: SN12C
# method.notes: NCI tumour cell line growth inhibition, 48 h
Activity calls are given as the source filed them. No stated cut-off is given here; in the data, active = GI50 up to about 1.1 µM and inactive = higher.
Return exactly one item of TRUE for active, FALSE for inactive

molecule: COC(=O)c1cccc2c3ccccc3c3ccccc3c12
category.label: FALSE

molecule: COC1C(O)=C2C(=O)OC(C)(O)/C=C/C=C\C=C/C=C/C(c3ccccc3)NC(=O)/C=C/C=C/C=C/C=C/C2(C)C1O (stereo not given)
category.label: TRUE

molecule: N/C(=N\O)N/N=C/c1cccc(F)c1
category.label: FALSE

molecule: O=C1Nc2ccccc2/C1=C1/Nc2ccccc2/C1=N\OCCOC1OCC(O)C(O)C1O (stereo not given)
category.label: FALSE

molecule: Cc1nc2c(C)c3c([nH]c4ccc(Cl)cc43)c(C)c2c(O)c1C
category.label: FALSE

molecule: NC1CSc2ccccc2NC1=O (stereo not given)
category.label: FALSE

Which result was noted for this molecule in the test: `Cc1cc(Br)cc(C)c1NC(=O)C(=O)CC(=O)c1sc(-n2nc(-c3ccccc3)cc2-c2ccccc2)nc1C`
FALSE

Which result was noted for this molecule in the test: c1ccc(SCCP(CCP(c2ccccc2)c2ccccc2)c2ccccc2)cc1 (stereo not given)
FALSE

Which result was noted for this molecule in the test: `Cn1c(=O)c(C(c2ccccc2)c2c(O)c3ccccc3n(C)c2=O)c(O)c2ccccc21`
FALSE

Which result was noted for this molecule in the test: Cc1ccc(C2SCC(=O)N2c2ccc(-n3c(-c4ccccc4)nc4ccccc4c3=O)cc2)cc1 (stereo not given)
FALSE

Which result was noted for this molecule in the test: `Cc1cc2c3c(c1)CCCN3CCC2`
FALSE

The reported numbers originate from ChEMBL document CHEMBL1201862.
